System: SN12C renal
assay-overview: NCI tumour cell line growth inhibition, 48 h
Property: GI50; scope: individual compounds

// worked examples, GI50 included
Note to self: GI50 recorded for CC(=O)[O-].[Mn+3].[O-]c1ccccc1C=NCCNCCN=Cc1ccccc1[O-] was > 100 µM

Note to self: GI50 recorded for O=C(Nc1ccc(-c2nc(-c3cccc(OCCN4CCOCC4)c3)c(-c3ccnc(Br)c3)[nH]2)cc1)c1ccccc1 was 6.94 µM

Note to self: GI50 recorded for COc1cc(NC(=O)CCSc2nc3ccc(C)cc3c(=O)n2Cc2ccccc2)cc(OC)c1OC was 78 µM

Note to self: GI50 recorded for Cc1c(-c2ccnc(N)n2)c2c(n1Cc1ccccc1)C(=O)c1ccccc1C2=O was > 100 µM

Note to self: GI50 recorded for C=CC(=O)Nc1cc(N2CCN(CC)CC2)ccc1Nc1cc(N(C)C(=O)Nc2c(Cl)c(OC)cc(OC)c2Cl)ncn1 was 2.84 µM

Note to self: GI50 recorded for CC1=C2C(=CO[C@H](C)[C@H]2C)C(=O)C(C(=O)O)=C1O was 9.07 µM

Now consider a different compound.
Note to self: GI50 recorded for Cc1nc(Nc2ccccn2)sc1C(=O)/C=C/c1ccc(Cl)cc1 was 0.547 µM

====

Test system: A549 NSCLC
assay-overview: NCI tumour cell line growth inhibition, 48 h; in the data active = GI50 below about 0.43 µM; inactive = the rest
The categories you may choose from are Y (active), N (inactive)

Study these solved cases before continuing.
What outcome does the record of this test show for O=C(c1ccccc1)c1c(NCC(O)CN2CCOCC2)n(Cc2ccccc2)c(=O)n(Cc2ccccc2)c1=O (stereo unspecified) ?
N

What outcome does the record of this test show for CCN(c1cc(-c2ccc(CN3CCOCC3)cc2)cc(C(=O)NCc2c(C)cc(C)[nH]c2=O)c1C)C1CCOCC1 ?
N

What outcome does the record of this test show for Cc1nnc2n1N=C(c1ccc(Cl)cc1Cl)/C(=C/c1ccc(-c3ccc([N+](=O)[O-])cc3Cl)o1)S2 ?
N

What outcome does the record of this test show for Cc1nc(Nc2ccccn2)sc1C(=O)/C=C/c1ccc(Cl)cc1 ?
Y

---
What outcome does the record of this test show for CCCCCCCCNCCC[C@@H](C)[C@H]1CC[C@H]2[C@@H]3[C@H](OCCCN)C[C@H]4C[C@H](OCCCN)CC[C@]4(C)[C@H]3C[C@H](OCCCN)[C@]12C ?
N

What outcome does the record of this test show for CN(C)c1nc2ccccc2c2c1c1c(n2Cc2ccccc2)-c2ccccc2C1=O ?
N

====

Tested on: DMS 114 small cell lung
assay-overview: NCI tumour cell line growth inhibition, 48 h
assay-metric: TGI (µM)
Please state the figure in µM; there is no need to write the unit.

// worked examples, TGI included
Note to self: TGI recorded for CC(C)(C)C(=CS(=O)/N=C/c1ccccc1)C(C)(C)C (stereo not given) was 82.1

Note to self: TGI recorded for CC(C)=CCC(OC(=O)C=C(C)C)C1=CC(=O)c2c(O)ccc(O)c2C1=O (stereo not given) was 3.03

Note to self: TGI recorded for COc1cccc(N[C@@H]2c3cc4c(cc3C(c3cc(OC)c(O)c(OC)c3)[C@H]3C(=O)OCC32)OCO4)c1 (stereo not given in full) was 4.77

Note to self: TGI recorded for O=C1c2c(O)cccc2-c2nn(CCNCCO)c3ccc(NCCNCCO)c1c23 was 0.178

Note to self: TGI recorded for CCOC(=O)CCn1ncc(Cl)c(Cl)c1=O was 4.3

---
Note to self: TGI recorded for COc1ccc(CCc2cc(OC)cc(OC)c2)cc1 was 24.6

Note to self: TGI recorded for CN1CCc2c1nc(-c1ccc(Cl)cc1)c1c2N(C)CC1 was 34.3
